All values here come from paper PMC9562916.

System: Caco-2 cell monolayer
PROTOCOL_SUMMARY: Caco-2 transepithelial transport assay of digested red wine
Assay type: in vitro ADME, human
STATED_CONDITIONS: Caco-2
Marks after values point to notes of the source that are not given here.
Overview of recorded Apparent Permeability Coefficients, Tianzhu for various compounds
MEASURE: Apparent Permeability Coefficients, Tianzhu

compound="COc1cc(-c2oc3cc(O)cc(O)c3c(=O)c2O[C@@H]2O[C@H](CO)[C@@H](O)[C@H](O)[C@H]2O)cc(O)c1O [Laricitrin-3-glc]" experimental_value="1.79 ± 0.13 ^a ×10^−6 cm/s"
compound="COc1cc(-c2[o+]c3cc(O)cc(O)c3cc2OC2OC(COC(C)=O)C(O)C(O)C2O)cc(O)c1O (stereo not shown) [Petunidin-3-acglc]" experimental_value="11.46 ± 2.05 ^a ×10^−6 cm/s"
compound="COc1cc(-c2oc3cc(O)cc(O)c3c(=O)c2O[C@@H]2O[C@H](CO)[C@@H](O)[C@H](O)[C@H]2O)cc(OC)c1O [Syringetin-3-glc]" experimental_value="2.88 ± 0.23 ^a ×10^−6 cm/s"
compound="O.Oc1cc(O)c2c(c1)O[C@H](c1ccc(O)c(O)c1)[C@@H](O)C2 [Catechin]" experimental_value="7.83 ± 1.17 ^a ×10^−6 cm/s"
compound="COc1cc(/C=C/C(=O)OC(C(=O)O)C(O)C(=O)O)ccc1O (stereo not shown) [Fertaric acid]" experimental_value="27.6 ± 3.89 ^a ×10^−6 cm/s"
compound="COc1cc(-c2[o+]c3cc(O)cc(O)c3cc2O[C@@H]2O[C@H](CO)[C@@H](O)[C@H](O)[C@H]2O)cc(O)c1O [Petunidin-3-glc]" experimental_value="17.13 ± 3.01 ^a ×10^−6 cm/s"
compound="O=C(/C=C/c1ccc(O)cc1)O[C@@H](C(=O)O)[C@@H](O)C(=O)O [Coutaric acid]" experimental_value="12.46 ± 1.42 ^a ×10^−6 cm/s"

* * *

Tested on: Caco-2 cell monolayer
PROTOCOL_SUMMARY: Caco-2 transepithelial transport assay of digested red wine
Type: in vitro ADME, human
STATED_CONDITIONS: apical to basolateral, digested Tianzhu red wine
Method: Caco-2 cells were inoculated following the method of Hubatsch et al. […] Briefly, a 5% v/v of CO2 incubator at 37 °C was used to house the cells. […] The integrity and transport ability of the Caco-2 cell monolayer were evaluated by measuring the trans-epithelial electrical resistance (TEER) with a MilliCell voltammeter (Millicell ERS-2, Merck Millipore, Billerica, MA, USA). […] PCs All of the samples were determined in triplicate.
Marks after values point to notes of the source that are not given here.
Reported Apparent Permeability Coefficients, Tianzhu values are given for each entry in this list.
MEASURE: Apparent Permeability Coefficients, Tianzhu

compound="OC[C@H]1O[C@@H](Oc2cc3c(O)cc(O)cc3[o+]c2-c2cc(O)c(O)c(O)c2)[C@H](O)[C@@H](O)[C@@H]1O [Delphinidin-3-glc, delphinidin-3-glucoside]" experimental_value="12.45 ± 2.11 ^a ×10^−6 cm/s"
compound="COc1cc(-c2[o+]c3cc(O)cc(O)c3cc2O[C@@H]2O[C@H](COC(C)=O)[C@@H](O)[C@H](O)[C@H]2O)cc(OC)c1O [Malvidin-3-acglc]" experimental_value="12.37 ± 2.45 ^a ×10^−6 cm/s"
compound="CC(=O)OCC1OC(Oc2cc3c(O)cc(O)cc3[o+]c2-c2cc(O)c(O)c(O)c2)C(O)C(O)C1O (stereo not shown) [Delphinidin-3-acglc]" experimental_value="8.78 ± 1.44 ^a ×10^−6 cm/s"
compound="O=c1c(O[C@@H]2O[C@H](CO)[C@@H](O)[C@H](O)[C@H]2O)c(-c2ccc(O)c(O)c2)oc2cc(O)cc(O)c12 [Quercetin-3-glc]" experimental_value="2.23 ± 0.22 ^a ×10^−6 cm/s"
compound="COc1cc(-c2oc3cc(O)cc(O)c3c(=O)c2O[C@@H]2O[C@H](CO)[C@@H](O)[C@H](O)[C@H]2O)ccc1O [Isorhamnetin-3-glc]" experimental_value="4.35 ± 0.34 ^a ×10^−6 cm/s"
compound="O=c1c(OC2O[C@H](CO)[C@@H](O)[C@H](O)[C@H]2O)c(-c2cc(O)c(O)c(O)c2)oc2cc(O)cc(O)c12 (stereo partly shown) [Myricetin-3-glc]" experimental_value="1.35 ± 0.19 ^a ×10^−6 cm/s"
compound="COc1cc(-c2[o+]c3cc(O)cc(O)c3cc2O[C@@H]2O[C@H](CO)[C@@H](O)[C@H](O)[C@H]2O)cc(OC)c1O [Malvidin-3-glc, malvidin-3-glucoside]" experimental_value="25.37 ± 4.11 ^a ×10^−6 cm/s"
